From: BindingDB's records for doi:10.1016/j.ejmech.2019.111601

Observed property: pIC50
A value of pIC50 is the negative decimal logarithm of a concentration given in moles per litre.

In: Param readout= pIC50; system= Prostaglandin G/H synthase 1 (Ovis aries) (UniProt P05979); entry= `O=C1C=C(Nc2ccc(Cl)cc2)CCC1` ; returns value.
Out: 4.42

* * *

# Measured target: Prostaglandin G/H synthase 2 (Homo sapiens)
# Test: Inhibition of recombinant human COX2 assessed as reduction in PGF2alpha incubated for 2 mins using arachidonic acid as substrate by ELISA
Observed property: IC50
Answer as a quantity: numeral, then unit.

In: Given `CC(C)(C)OC(=O)N(C1=CC(=O)CCC1)c1ccc(Cl)cc1` , state its recorded IC50.
Out: 0.915 µM

In: Given `CC(=O)N(C1=CC(=O)CCC1)c1ccc(Cl)cc1` , state its recorded IC50.
Out: 0.367 µM

In: Given `O=C1C=C(Nc2ccc(Cl)cc2)CCC1` , state its recorded IC50.
Out: 0.513 µM
